- Tested on: Streptococcus pneumoniae 1195 (ATCC 49619)
- run.description: MIC, broth microdilution, SPNE 1195
- Type: cell-based
- measurement.parameters: Streptococcus pneumoniae, ATCC49619; Table 1; class symbols; read-out: MIC S PNE 1195
Catalogue of molecules with associated MIC

CCCCOc1ccc(S(=O)(=O)NC(=O)C[C@@H]2NC(=O)[C@H](NC(=O)[C@@H](CC(C)C)NC)[C@H](O)c3ccc(c(Cl)c3)Oc3cc4cc(c3O[C@@H]3O[C@H](CN)[C@@H](O)[C@H](O)[C@H]3O)Oc3ccc(cc3Cl)[C@@H](O)[C@@H]3NC(=O)[C@H](NC(=O)[C@@H]4NC2=O)c2ccc(O)c(c2)-c2c(O)cc(O)cc2[C@@H](C(=O)NC2C4CC5CC(C4)CC2C5)NC3=O)cc1 (some centres unmarked) [Compound 99]	0.5 to 1 µg/mL

Lab note: next molecule to report on.
Q: Using the record for CCCCCCOc1ccc(S(=O)(=O)NC(=O)C[C@@H]2NC(=O)[C@H](NC(=O)[C@@H](CC(C)C)NC)[C@H](O)c3ccc(c(Cl)c3)Oc3cc4cc(c3O[C@@H]3O[C@H](CO)[C@@H](O)[C@H](O)[C@H]3O)Oc3ccc(cc3Cl)[C@@H](O)[C@@H]3NC(=O)[C@H](NC(=O)[C@@H]4NC2=O)c2ccc(O)c(c2)-c2c(O)cc(O)cc2[C@@H](C(=O)NC2C4CC5CC(C4)CC2C5)NC3=O)cc1 (some centres unmarked) [Compound 118] , report its MIC.
Result: 0.01 to 0.5 µg/mL
